SYSTEM TESTED: c-Src SH2
PROTOCOL: SH2 binding enrichment of the phosphorylated peptide, bacterial display (enrichment ratio); higher = better substrate or ligand; peptides without Tyr show the background
Binary call on SH2 binding enrichment: Fulfilled from 0.6 upward, Not fulfilled beneath that.

EEQKKYFNAVK [SCN5A_Y1494_M1498V_YF]
Not fulfilled
FRPPYYHRNCM [HGD_Y334]
Fulfilled
MSLRSYGSREG [APC_Y96]
Not fulfilled
SMVVPYEPPEV [TP53_Y220_V216M]
Fulfilled
SNPAYYVLEGV [INPPL1_Y987_N982S]
Fulfilled

query: # check: SH2 binding enrichment of EGDGVYTLNDE [HP_Y125_N129D] is greater than or equal to 0.6
result: Not fulfilled

---

Recorded phosphorylation enrichment values for a group of sequences are listed next.
SYSTEM TESTED: Fes (UniProt P07332)
Sequence (P07332 whole entry, looked up): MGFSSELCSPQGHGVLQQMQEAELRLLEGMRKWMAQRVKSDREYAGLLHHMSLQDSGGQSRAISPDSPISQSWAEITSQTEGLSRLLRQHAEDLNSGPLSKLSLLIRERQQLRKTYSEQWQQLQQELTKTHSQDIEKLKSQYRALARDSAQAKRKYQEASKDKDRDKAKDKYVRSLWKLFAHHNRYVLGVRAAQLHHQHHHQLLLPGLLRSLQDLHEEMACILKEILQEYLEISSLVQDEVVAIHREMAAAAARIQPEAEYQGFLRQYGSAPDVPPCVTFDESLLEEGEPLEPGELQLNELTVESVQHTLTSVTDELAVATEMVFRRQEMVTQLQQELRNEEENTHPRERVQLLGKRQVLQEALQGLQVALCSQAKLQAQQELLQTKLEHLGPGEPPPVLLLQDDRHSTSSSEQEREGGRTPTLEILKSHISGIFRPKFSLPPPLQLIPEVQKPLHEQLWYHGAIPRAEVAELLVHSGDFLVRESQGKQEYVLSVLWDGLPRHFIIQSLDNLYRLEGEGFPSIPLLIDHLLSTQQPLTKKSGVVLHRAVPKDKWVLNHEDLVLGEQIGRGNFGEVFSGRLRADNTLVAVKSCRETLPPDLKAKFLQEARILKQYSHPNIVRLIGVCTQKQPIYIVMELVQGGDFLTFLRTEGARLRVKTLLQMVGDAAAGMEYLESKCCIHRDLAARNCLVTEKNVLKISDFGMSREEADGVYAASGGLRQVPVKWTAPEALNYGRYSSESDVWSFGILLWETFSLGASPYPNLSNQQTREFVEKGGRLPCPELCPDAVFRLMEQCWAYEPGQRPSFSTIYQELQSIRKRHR
PROTOCOL: phosphorylation enrichment, bacterial display (enrichment ratio); higher = better substrate or ligand; peptides without Tyr show the background
Number only, please.

AGADGYGYLAP [FOXL2_Y186]
0.622
RHLQEYQDLLN [GFAP_Y349]
0.807
MCDSHYLESRS [CLK1_Y56]
0.81

query: For the sequence LCRYGYANTSE [SI_Y1233] , what phosphorylation enrichment is on record?
result: 1.41

query: What phosphorylation enrichment value was documented for this sequence, LRWREYQRQDY [PRKRIP1_Y90_R87W] ?
result: 0.957

---

SYSTEM TESTED: SHP2-C SH2
PROTOCOL: SH2 binding enrichment of the phosphorylated peptide, bacterial display (enrichment ratio); higher = better substrate or ligand; peptides without Tyr show the background
PARAMETER MEASURED: SH2 binding enrichment
The response must contain the number and no unit.

MEYLPYGSLRD [JAK2_Y934]
1.19
CDDGKYVYVVT [RPS6KA3_Y488_Y483C]
0.548
ANLAKYGNPNE [BCHE_Y505_F502L]
0.639
MTFVFYRENLR [NLRP14_Y443_YF]
1.14
SAASGYSDVTD [DTX2_Y425_T421A]
0.979

query: Suppose we examine the sequence LEGKEYRMSGE [KRT3_Y511_E509K] ; what SH2 binding enrichment value has been reported?
result: 1.12

query: Any idea what SH2 binding enrichment was measured for PLLEYYRDIFT [CDAN1_Y713] ?
result: 0.777

query: Form field: reported SH2 binding enrichment of EQPNPYMVLDI [ROCK2_Y1197_S1194P]
result: 0.785

query: SH2 binding enrichment lookup needed for EVKRLYGSVCD [TC2N_Y154] , thanks.
result: 0.744

query: # get_value(readout='SH2 binding enrichment', item= CTTSHYNYMCN [TP53_Y234_I232S] )
result: 2.04

query: Given the entry GPRSLYNGLVA [UCP2_Y79] , report its measured SH2 binding enrichment.
result: 0.661

---

SYSTEM TESTED: FGFR1 (UniProt P11362)
Sequence (P11362 whole entry, looked up): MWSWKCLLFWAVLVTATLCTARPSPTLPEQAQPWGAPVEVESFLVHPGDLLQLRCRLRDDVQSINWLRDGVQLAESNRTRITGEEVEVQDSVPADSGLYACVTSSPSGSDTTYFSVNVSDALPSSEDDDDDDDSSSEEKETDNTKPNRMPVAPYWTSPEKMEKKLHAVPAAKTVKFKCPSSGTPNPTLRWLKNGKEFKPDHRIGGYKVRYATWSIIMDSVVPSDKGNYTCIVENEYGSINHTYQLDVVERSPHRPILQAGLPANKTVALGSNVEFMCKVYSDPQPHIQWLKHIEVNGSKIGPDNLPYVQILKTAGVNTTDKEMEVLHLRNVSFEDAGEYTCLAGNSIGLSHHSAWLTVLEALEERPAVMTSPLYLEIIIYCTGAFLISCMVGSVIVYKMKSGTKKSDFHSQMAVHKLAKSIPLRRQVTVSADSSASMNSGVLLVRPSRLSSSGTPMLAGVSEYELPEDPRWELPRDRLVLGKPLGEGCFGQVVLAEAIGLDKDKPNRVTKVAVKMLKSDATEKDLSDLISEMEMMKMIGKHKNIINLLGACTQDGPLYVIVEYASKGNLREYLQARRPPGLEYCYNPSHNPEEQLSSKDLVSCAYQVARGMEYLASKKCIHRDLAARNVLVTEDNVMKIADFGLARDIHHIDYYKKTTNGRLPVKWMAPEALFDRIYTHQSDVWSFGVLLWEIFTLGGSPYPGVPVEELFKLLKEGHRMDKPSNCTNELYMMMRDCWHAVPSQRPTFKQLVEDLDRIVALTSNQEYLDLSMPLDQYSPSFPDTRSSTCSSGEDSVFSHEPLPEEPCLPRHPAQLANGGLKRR
PROTOCOL: phosphorylation enrichment, bacterial display (enrichment ratio); higher = better substrate or ligand; peptides without Tyr show the background
PARAMETER MEASURED: phosphorylation enrichment
Respond using a number only.

# annotated cases, reported phosphorylation enrichment shown
AALRLYHVSDS [VIL1_Y256_K254R]
0.641
GMRHGHGVRQS [JPH2_Y141_Y141H]
0.471
QMRLRYLAAEE [CEP120_Y884]
0.931
YRGYSYDDIPD [TMEM230_Y112]
0.531
IFSGIYFKPES [L2HGDH_Y102_H98Y_YF]
1.3
LVTCSYLLGNS [LMNA_Y646_R644C]
0.76
VVQGIYGYHHH [UFSP2_Y285_Y290H]
0.541
CERFSYFGMKA [SLC15A2_Y60_YF]
1.24
ETKGDYEKILV [ANXA1_Y335]
0.548
LVPAWYIGFLC [KCNQ2_Y237_T234P]
0.502

query: Request - read-out phosphorylation enrichment | tested on FGFR1 (UniProt P11362) | sequence ADRSCYDLSCH [GARS1_Y467]
result: 0.433

query: State its phosphorylation enrichment on FGFR1 (UniProt P11362): QRALLYEDTLY [UNC13D_Y56_A59T]
result: 0.648

query: Please tell me: phosphorylation enrichment of AEFGLYRAMVR [VSX2_Y222_G223R_YF] , system FGFR1 (UniProt P11362)?
result: 0.484

query: // map GFQPEYGQPAG [SYP_Y278_D277E_YF] to recorded phosphorylation enrichment (system: FGFR1 (UniProt P11362))
result: 0.479

query: State its phosphorylation enrichment on FGFR1 (UniProt P11362): VVLEDYLDIKN [CLCNKB_Y138]
result: 0.668

query: What phosphorylation enrichment appears in the records for this sequence with FGFR1 (UniProt P11362)? RAMPVYEKAEH [TP63_Y231_K232E]
result: 0.493

query: Lookup: phosphorylation enrichment / FGFR1 (UniProt P11362) / YIRRDYEACKA [BBS4_Y48_K46R]
result: 0.633

query: # query: phosphorylation enrichment | item GCVSKYSGVFS [TUBGCP6_Y1624] | system: FGFR1 (UniProt P11362)
result: 0.321

query: Recall the recorded phosphorylation enrichment for QFFQSYFNNNF [ZNF236_Y644] with FGFR1 (UniProt P11362) and state it.
result: 0.643

query: Item: SGDDGYAKDAQ [TENM4_Y1530_K1535Q] Test system: FGFR1 (UniProt P11362) Read-out: phosphorylation enrichment Value: ?
result: 0.45

query: Short answer please: phosphorylation enrichment, FGFR1 (UniProt P11362), entry SLIDGYYRLTE [JAK2_Y372_A377E]
result: 1.11

query: Reported phosphorylation enrichment for FGFR1 (UniProt P11362), given ALKKPYSVLFK [RPF2_Y59_G60S_YF] ?
result: 0.556
